experiment: Pharmacokinetics (plasma Cmax, AUC, Tmax, t1/2, trough concentrations); format: in vivo, human; conditions: human, plasma, oral, 100 mg, Day 28; 100 mg QD Part 1; read-out: Trough Plasma Concentration, Median
value-type: concentration at 28 day (ng/mL)

INSERT INTO results (compound, test_value) VALUES
  ('CC(=O)N[C@H]1CC[C@H](NC(=O)CN2CCN(c3nncc(-c4ccc(C)cc4)n3)CC2)CC1 [Compound A HBr]', 38.6);

---

Experiment: Pharmacokinetics (plasma Cmax, AUC, Tmax, t1/2, trough concentrations)
Format: in vivo, human
Settings: human, plasma, oral, 12.5 mg, steady state Day 28; 12.5 mg QD; read-out: AUC0-24, Median
Excerpt: Pharmacokinetic endpoints of this study are PK parameters, including, of area under the plasma concentration versus time curve (AUC), maximum plasma concentration (Cmax), time to maximum concentration (Tmax), and half-life (t1/2) will be summarized descriptively for Randomization (baseline) and Study Weeks 1, 4, and 8 PK/PD Analysis Set includes all subjects in the SAF who have sufficient data available for the analysis of pharmacokinetic and pharmacodynamic measurements. […]
value-type: AUC(0-t) (ng·h/mL)

INSERT INTO results (compound, value_type, unit_descriptor, test_value) VALUES
  ('CC(=O)N[C@H]1CC[C@H](NC(=O)CN2CCN(c3nncc(-c4ccc(C)cc4)n3)CC2)CC1 [Compound A HBr]', 'AUC(0-t)', 'ng·h/mL', 498);

---

assay: Pharmacokinetics (plasma Cmax, AUC, Tmax, t1/2, trough concentrations); assay type: in vivo, human; conditions: human, plasma, oral, 12.5 mg, Day 28; 12.5 mg QD; read-out: Trough Plasma Concentration, Geo Mean
value-type: concentration at 28 day (ng/mL)

INSERT INTO measurements (molecule, test_value) VALUES
  ('CC(=O)N[C@H]1CC[C@H](NC(=O)CN2CCN(c3nncc(-c4ccc(C)cc4)n3)CC2)CC1 [Compound A HBr]', 5.77);

---

test: Pharmacokinetics (plasma Cmax, AUC, Tmax, t1/2, trough concentrations); assay type: in vivo, human; conditions: human, plasma, oral, 50 mg, Day 56; 50 mg QD; read-out: Trough Plasma Concentration, Median
value-type: concentration at 56 day (ng/mL)

INSERT INTO results (compound, value_type, unit_descriptor, test_value) VALUES
  ('CC(=O)N[C@H]1CC[C@H](NC(=O)CN2CCN(c3nncc(-c4ccc(C)cc4)n3)CC2)CC1 [Compound A HBr]', 'concentration at 56 day', 'ng/mL', 18);

---

experiment: Pharmacokinetics (plasma Cmax, AUC, Tmax, t1/2, trough concentrations); format: in vivo, human; details: human, plasma, oral, 100 mg, Day 7; 100 mg QD Part 1; read-out: Trough Plasma Concentration, Median
value-type: concentration at 7 day (ng/mL)

INSERT INTO results (sample_smiles, test_value) VALUES
  ('CC(=O)N[C@H]1CC[C@H](NC(=O)CN2CCN(c3nncc(-c4ccc(C)cc4)n3)CC2)CC1', 28.2);

---

test: Pharmacokinetics (plasma Cmax, AUC, Tmax, t1/2, trough concentrations); type: in vivo, human; conditions: human, plasma, oral, 100 mg, Day 28; 100 mg QD Part 2; read-out: Trough Plasma Concentration, Geo Mean
value-type: concentration at 28 day (ng/mL)

INSERT INTO results (sample_smiles, test_value) VALUES
  ('CC(=O)N[C@H]1CC[C@H](NC(=O)CN2CCN(c3nncc(-c4ccc(C)cc4)n3)CC2)CC1', 12.9);
